tested on: Phosphodiesterase 3 (Canis lupus familiaris)
assay protocol: In vitro inhibitory activity against cAMP PDE III.
measured property: IC50 (nM)

Oc1ccc2c(-c3ccccc3)nccc2n1
1400

(I) COc1ccc(-c2nccc3nc(O)ccc23)cc1
(II) CC(=O)c1nccc2nc(O)ccc12
(III) CCc1nccc2nc(O)ccc12
Falling order of IC50, please. Enter labels, ranked according to the request. I, II, III

* * *

System: Phosphodiesterase 3 (Canis lupus familiaris)
assay protocol: In vitro inhibition of cAMP PDE III by the compound at a concentration of 10 uM
measured property: inhibition (%)

CCCc1nccc2nc(O)ccc12
83
Nc1ccc(-c2nccc3nc(O)ccc23)cc1
91
Oc1ccc2c(-c3ccc(Cl)cc3)nccc2n1
78
CCc1nccc2nc(O)ccc12
87
Oc1ccc2c(-c3ccco3)nccc2n1
74
OCc1nccc2nc(O)ccc12
58
Cc1cn(-c2nccc3nc(O)ccc23)cn1
72
Oc1ccc2c(-c3ccncc3)nccc2n1
78
CC(C)Cc1nccc2nc(O)ccc12
81
Cc1c2ccc(=O)[nH]c2cc[n+]1[O-]
65
Oc1ccc2c(-c3ccccc3)nccc2n1
78

Value source: ChEMBL document CHEMBL1125567
